Reference source for all entries: paper PMC9838217

target_of_assay: SALL4 ZFC4 R900W (HT-SELEX) (Mus musculus, UniProt Q8BX22 870-940, R900W)
Sequence: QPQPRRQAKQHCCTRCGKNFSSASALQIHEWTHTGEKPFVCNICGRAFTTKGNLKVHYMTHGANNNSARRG
assay_remarks: HT-SELEX; high values mean tight binding
protocol_conditions: protein: recombinant; vector His6-GST; dsDNA, one strand shown
Recorded binding signal for the following sequences

{"biopolymer_sequence": "ACTCTG", "binding signal [fold-change vs cycle 0]": 0.914}
{"biopolymer_sequence": "ATTGGA", "binding signal [fold-change vs cycle 0]": 1.36}
{"biopolymer_sequence": "CGGGTC", "binding signal [fold-change vs cycle 0]": 0.212}
{"biopolymer_sequence": "CCTGCG", "binding signal [fold-change vs cycle 0]": 0.145}
{"biopolymer_sequence": "AACCCC", "binding signal [fold-change vs cycle 0]": 0.547}
{"biopolymer_sequence": "TCCTCA", "binding signal [fold-change vs cycle 0]": 1.04}
{"biopolymer_sequence": "ACATCC", "binding signal [fold-change vs cycle 0]": 0.969}
{"biopolymer_sequence": "GATTAA", "binding signal [fold-change vs cycle 0]": 1.99}
{"biopolymer_sequence": "GCAACA", "binding signal [fold-change vs cycle 0]": 0.629}
{"biopolymer_sequence": "ACCTTC", "binding signal [fold-change vs cycle 0]": 0.982}
{"biopolymer_sequence": "GATTGC", "binding signal [fold-change vs cycle 0]": 0.711}
{"biopolymer_sequence": "AGGTCC", "binding signal [fold-change vs cycle 0]": 0.53}
{"biopolymer_sequence": "GAGATA", "binding signal [fold-change vs cycle 0]": 1.54}
